# TEST_SYSTEM: fungal tyrosinase
# METHOD_NOTES: in vitro test of inhibition of tyrosinase activity
# CONDITIONS_USED: L-tyrosine with L-dopa co-substrate, pH 6.5, 25° C., dopachrome at 475 nm, read-out: IC 50 (content leading to 50% inhibition of the tyrosinase)
REPORTED_PROPERTY: log10 of IC50 (log10 of the value in µM)
Remember, log10 of IC50, in µM.

Consider the worked cases shown below.
- O=C(C=Cc1ccc(O)c(O)c1)OC1CC(O)(C(=O)O)CC(OC(=O)C=Cc2ccc(O)c(O)c2)C1O (stereo not drawn) [3,5-di-caffeoylquinic acid]: 1.72
- O=C(C=Cc1ccc(O)c(O)c1)OC1CC(O)(C(=O)O)CC(O)C1OC(=O)C=Cc1ccc(O)c(O)c1 (stereo not drawn) [3,4-di-caffeoylquinic acid]: 1.93
- O=C(C=Cc1ccc(O)c(O)c1)OC1CC(O)(C(=O)O)CC(O)C1OC(=O)C=Cc1ccc(O)c(O)c1 (stereo not drawn) [4,5-di-caffeoylquinic acid]: 1.65

Asked: Kindly state the measured log10 of IC50 obtained for O=C(C=Cc1ccc(O)c(O)c1)OC1CC(OC(=O)C=Cc2ccc(O)c(O)c2)(C(=O)O)CC(O)C1O (stereo not drawn) [1,3-di-caffeoylquinic acid] with fungal tyrosinase.
Given back: 1.67

Asked: Kindly state the measured log10 of IC50 obtained for O=C(C=Cc1ccc(O)c(O)c1)OC1CC(O)(C(=O)O)CC(OC(=O)C=Cc2ccc(O)c(O)c2)C1OC(=O)C=Cc1ccc(O)c(O)c1 (stereo not drawn) [3,4,5-tri-caffeoylquinic acid] with fungal tyrosinase.
Given back: 1.46

Asked: Kindly state the measured log10 of IC50 obtained for O=C(O)/C=C/c1ccc(O)c(O)c1 [Caffeic acid, reference compound] with fungal tyrosinase.
Given back: 2.72
